Provenance of the data: patent US20220096653A1

Molecular target: T1, CEACAM5 (R&D Systems, 4128-CM-050) (human, UniProt P06731 35-685)
T1 construct: Immobilised on the ELISA plate; also called human CEACAM5
T1 sequence (looked up): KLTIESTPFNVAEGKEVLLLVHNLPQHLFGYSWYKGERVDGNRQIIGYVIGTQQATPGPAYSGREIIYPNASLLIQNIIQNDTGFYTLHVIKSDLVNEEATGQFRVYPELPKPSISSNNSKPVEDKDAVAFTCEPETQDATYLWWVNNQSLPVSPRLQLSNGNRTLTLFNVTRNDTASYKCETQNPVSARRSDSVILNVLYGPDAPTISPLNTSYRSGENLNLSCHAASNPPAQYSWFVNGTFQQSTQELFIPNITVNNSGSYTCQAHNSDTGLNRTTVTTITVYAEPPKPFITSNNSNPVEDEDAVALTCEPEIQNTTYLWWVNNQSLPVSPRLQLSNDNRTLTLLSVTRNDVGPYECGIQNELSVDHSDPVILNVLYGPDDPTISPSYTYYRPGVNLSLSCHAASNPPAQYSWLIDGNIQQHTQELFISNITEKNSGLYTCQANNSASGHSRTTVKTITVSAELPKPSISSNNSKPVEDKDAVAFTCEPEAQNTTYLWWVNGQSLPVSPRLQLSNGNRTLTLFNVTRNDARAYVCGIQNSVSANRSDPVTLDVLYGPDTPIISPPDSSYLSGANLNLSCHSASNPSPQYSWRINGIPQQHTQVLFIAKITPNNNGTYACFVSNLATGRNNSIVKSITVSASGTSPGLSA
Assay: ELISA on immobilised CEACAM5, 4-parameter fit, duplicate
Overview of recorded pEC50 for various binders
Formally, pEC50 is defined as -log10 of the concentration c, with c in mol/L.

Use these answered entries as a reference point.
binder	pEC50
[DFO-C(═O)-(CH2CH2O)4-(1,3-Ph)-C(═O)-Gly-Lys*-Z2(#S)]p-Fab^2 (Fab, V domains shown, labeling may sit on this chain; sites not stated; labeling portion (MW 1252) bound via 2-iminothiolane-treated amino groups of the Fab, sites and chain not stated; 1-2 per Fab by MS, No metal; also called Ex-No 61; Conjugate No. 61) VH: EVQLVESGGGLVQPGGSLRLSCAASGFNIRDTYMHWVRQAPGKGLEWVARIDPANGNSRYVPKFQGRFTISADTSRNTAYLQMNSLRAEDTAVYYCAPFGYYVSDYAMAYWGQGTLVTVSS VL: DIQLTQSPSSLSASVGDRVTITCRAGESVDIFGVGFLHWYQQKPGKAPKLLIYRASNLESGIPSRFSGSGSRTDFTLTISSLQPEDFATYYCQQTNEDPYTFGQGTKVEIKR	9.74
(Y-S1-X)p-Fab^2 with Y DFO, S1 -C(═O)-(1,3-Ph)-C(═O)-, X -Gly-Lys*Z2(#S)- (Fab, V domains shown, labeling may sit on this chain; sites not stated; labeling portion (MW 1076) on amino groups of the Fab, sites and chain not stated; 1-3 per Fab by MS, No metal; also called Ex-No 64; conjugate 64) VH: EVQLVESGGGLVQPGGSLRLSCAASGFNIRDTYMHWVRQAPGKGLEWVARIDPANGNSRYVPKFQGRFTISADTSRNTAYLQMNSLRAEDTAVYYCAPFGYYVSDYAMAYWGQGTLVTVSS VL: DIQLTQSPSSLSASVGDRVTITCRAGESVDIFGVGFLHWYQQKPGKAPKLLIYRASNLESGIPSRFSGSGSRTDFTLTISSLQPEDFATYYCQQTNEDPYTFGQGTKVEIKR	9.70
(Y-S1-X)p-Fab^2 with Y Gd/4arm-DOTA, S1 spacer (n), X -Met-Gly-Lys*-Z2(#N)- (Fab, V domains shown, labeling may sit on this chain; sites not stated; labeling portion (MW 1244) on amino groups of the Fab, sites and chain not stated; 1 per Fab by MS, also called Ex-No 58; conjugate 58) VH: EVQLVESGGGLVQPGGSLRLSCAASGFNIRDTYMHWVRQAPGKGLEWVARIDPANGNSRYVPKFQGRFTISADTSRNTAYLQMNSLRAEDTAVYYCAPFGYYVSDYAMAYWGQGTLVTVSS VL: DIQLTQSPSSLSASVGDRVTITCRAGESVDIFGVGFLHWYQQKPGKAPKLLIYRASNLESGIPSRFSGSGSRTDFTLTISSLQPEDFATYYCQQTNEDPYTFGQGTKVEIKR	9.55
(Y-S1-X)p-Fab^2 with Y Gd/4arm-DOTA, S1 -CH2-(1,4-Ph)-NH-C(═S)-, X -Gly-(naph-Ala)-Lys*-Z2(#N)- (Fab, V domains shown, labeling may sit on this chain; sites not stated; labeling portion (MW 1187) on amino groups of the Fab, sites and chain not stated; 1-2 per Fab by MS, also called Ex-No 55; conjugate 55) VH: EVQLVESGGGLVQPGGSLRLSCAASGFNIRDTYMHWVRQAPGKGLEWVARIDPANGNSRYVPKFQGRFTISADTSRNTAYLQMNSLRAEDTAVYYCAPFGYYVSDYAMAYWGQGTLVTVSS VL: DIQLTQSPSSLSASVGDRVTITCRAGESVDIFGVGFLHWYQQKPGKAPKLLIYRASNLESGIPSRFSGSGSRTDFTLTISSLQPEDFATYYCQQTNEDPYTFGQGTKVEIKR	9.59

Kindly review the next binder as well.
(Q) Provide one value: measured pEC50 of [Gd/DOTA-NH-CH2-(1,3-Ph)-C(═O)-Met-Gly-Lys*-Z2(#S)]p-Fab^2 (Fab, V domains shown, labeling may sit on this chain; sites not stated; labeling portion (MW 1190) bound via 2-iminothiolane-treated amino groups of the Fab, sites and chain not stated; 1-2 per Fab by MS, also called Ex-No 24; Conjugate No. 24) VH: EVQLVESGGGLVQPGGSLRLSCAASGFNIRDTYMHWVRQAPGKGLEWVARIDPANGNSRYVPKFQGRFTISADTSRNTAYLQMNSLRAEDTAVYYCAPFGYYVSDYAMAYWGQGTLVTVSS VL: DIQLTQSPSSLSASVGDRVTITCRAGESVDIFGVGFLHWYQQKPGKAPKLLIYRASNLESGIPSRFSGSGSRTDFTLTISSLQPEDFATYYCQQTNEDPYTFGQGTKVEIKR
(A) 9.60
